Ref: ChEMBL document CHEMBL4145553

System: HT-29
protocol text: Growth of human HT-29 cells at 10 uM incubated for 48 hrs by sulforhodamine B assay relative to control
recorded conditions: HT-29, 48 h
Overview of reported growth, % of control at 10 µM across a group of compounds:
measurement type: growth, % of control at 10 µM (%)

# smiles string, assay value
data = [
    ("CCS/C(Nc1ccccc1)=C(\\C#N)C(=O)Nc1ccc(OC)cc1", 6.46),
    ("CCS/C(Nc1ccccc1)=C(\\C#N)C(=O)N/N=C\\c1ccc(Cl)cc1Cl", 9.53),
    ("CC(C)(C)S/C(Nc1ccccc1)=C(\\C#N)C(=O)Nc1ccccc1", 94.6),
    ("CCS/C(Nc1ccccc1)=C(\\C#N)C(=O)Nc1ccccc1", 88.2),
    ("CC(C)(C)S/C(Nc1ccccc1)=C(\\C#N)C(=O)N/N=C\\c1ccc(Cl)cc1Cl", 92.6),
    ("CCS/C(Nc1ccccc1)=C(\\C#N)C(=O)N/N=C\\c1ccco1", 94.7),
    ("CC(C)(C)S/C(Nc1ccccc1)=C(\\C#N)C(=O)N/N=C\\c1ccco1", 87.2),
    ("CCS/C(Nc1ccccc1)=C(\\C#N)C(=O)Nc1ccc(C)cc1", 89),
]

###

System: T47D
protocol text: Growth inhibition of human T47D cells at 10 uM incubated for 48 hrs by sulforhodamine B assay relative to control
Assay type: functional
recorded conditions: values are per cent of control
Overview of reported growth, % of control at 10 µM across a group of molecules:

# smiles string, scale unit, growth, % of control at 10 µM
records = [
    ("CCS/C(Nc1ccccc1)=C(\\C#N)C(=O)N/N=C\\c1ccco1", "%", 78),
    ("CC(C)(C)S/C(Nc1ccccc1)=C(\\C#N)C(=O)Nc1ccccc1", "%", 85.2),
    ("CCS/C(Nc1ccccc1)=C(\\C#N)C(=O)Nc1ccc(OC)cc1", "%", 25.4),
    ("CCS/C(Nc1ccccc1)=C(\\C#N)C(=O)N/N=C\\c1ccc(Cl)cc1Cl", "%", 17.8),
    ("CC(C)(C)S/C(Nc1ccccc1)=C(\\C#N)C(=O)N/N=C\\c1ccc(Cl)cc1Cl", "%", 78.4),
]

###

System: TK-10
protocol text: Growth inhibition of human TK10 cells at 10 uM incubated for 48 hrs by sulforhodamine B assay relative to control
Assay type: functional
recorded conditions: TK-10, 48 h, values are per cent of control

# smiles string, growth, % of control at 10 µM, %
data = [
    ("CCS/C(Nc1ccccc1)=C(\\C#N)C(=O)N/N=C\\c1ccco1", 103),
    ("CC(C)(C)S/C(Nc1ccccc1)=C(\\C#N)C(=O)N/N=C\\c1ccco1", 103),
    ("CC(C)(C)S/C(Nc1ccccc1)=C(\\C#N)C(=O)N/N=C\\c1ccc(Cl)cc1Cl", 99.1),
    ("CCS/C(Nc1ccccc1)=C(\\C#N)C(=O)N/N=C\\c1ccc(Cl)cc1Cl", 56.7),
    ("CCS/C(Nc1ccccc1)=C(\\C#N)C(=O)Nc1ccc(OC)cc1", 47.6),
    ("CCS/C(Nc1ccccc1)=C(\\C#N)C(=O)Nc1ccc(C)cc1", 81.7),
    ("CCS/C(Nc1ccccc1)=C(\\C#N)C(=O)Nc1ccccc1", 76.7),
    ("CC(C)(C)S/C(Nc1ccccc1)=C(\\C#N)C(=O)Nc1ccccc1", 90.9),
]
